FYI, the data here is from patent US20240158385A1.

- study.system: human KCNK13 (Homo sapiens, UniProt Q9HB14)
- Construct: expressed in transfected cells
- measurement.notes: KCNK13 antagonist activity, thallium (Tl+) flux FLIPR assay
- Type: cell-based
- experimental.setup: HEK 293 cells stably expressing human KCNK13; Tl+ sensitive dye, FLIPR; compounds 15 minutes prior to thallium sulfate; 10 point half log curves from 10 PM; read-out: hKCNK13 IC50
measurement.name: IC50

Exercise: Can you share its IC50? I mean this compound: N#Cc1ncc(Cn2c(-c3nonc3N)nc3cccc(F)c32)cn1 (single isomer, unassigned) [Example 25]
Solution: < 50 nM

Exercise: Can you look up the measured IC50 of Cc1nonc1-c1nc2ccc(F)c(F)c2n1Cc1cnc(C#N)nc1 [Example 1] for me?
Solution: < 100 nM

Exercise: Given the compound Cc1nonc1-c1nc2cccnc2n1Cc1ccc(C#N)nn1 [Example 18] , what is its reported IC50?
Solution: < 500 nM

Exercise: Reported IC50 for Cc1nsnc1-c1nc2ccccc2n1Cc1cccnc1 [Example 127] : what is it?
Solution: < 100 nM

Exercise: Query (compound): Cc1ccc(Cn2c(-c3nonc3N)nc3cccc(F)c32)nn1 (single isomer, unassigned) [Example 168] ; field requested: IC50
Solution: < 50 nM

Continuing:
Exercise: What value of IC50 has been recorded for this entry: Nc1nonc1-c1nc2ccccc2n1Cc1ccnnc1 [Example 107]
Solution: < 200 nM

Exercise: Entry Cc1nonc1-c1nc2ccc(F)c(F)c2n1Cc1cccnn1 (single isomer, unassigned) [Example 170] : reported IC50 = ?
Solution: < 100 nM

Exercise: // IC50 lookup, key: Cc1nsnc1-c1nc2cccc(F)c2n1Cc1cccnc1 (single isomer, unassigned) [Example 125]
Solution: < 50 nM

Exercise: Entry under review: Nc1nonc1-c1nc2cccc(F)c2n1Cc1ccc(O)nn1 [Example 150] . Reported IC50?
Solution: < 200 nM

Exercise: Recorded IC50 for Nc1nsnc1-c1nc2cccc(F)c2n1Cc1cccnn1 (single isomer, unassigned) [Example 156] , please?
Solution: < 50 nM

---

Below, each entry is listed with its recorded IC50.
- study.system: human KCNK13 (Homo sapiens, UniProt Q9HB14)
- Construct: expressed in transfected cells
- Sequence (Q9HB14 1-408): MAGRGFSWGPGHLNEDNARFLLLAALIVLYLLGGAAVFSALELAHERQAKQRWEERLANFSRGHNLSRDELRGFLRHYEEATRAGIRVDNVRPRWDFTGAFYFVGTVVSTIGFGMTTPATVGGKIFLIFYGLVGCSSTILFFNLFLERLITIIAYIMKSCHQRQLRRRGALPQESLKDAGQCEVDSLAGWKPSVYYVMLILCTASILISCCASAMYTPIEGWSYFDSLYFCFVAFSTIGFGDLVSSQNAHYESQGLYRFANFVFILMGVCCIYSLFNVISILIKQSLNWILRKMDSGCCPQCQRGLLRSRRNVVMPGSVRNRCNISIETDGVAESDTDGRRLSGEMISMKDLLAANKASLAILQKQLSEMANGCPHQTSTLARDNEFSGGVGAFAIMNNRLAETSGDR
- measurement.notes: KCNK13 antagonist activity, thallium (Tl+) flux FLIPR assay
- Type: cell-based
- experimental.setup: HEK 293 cells stably expressing human KCNK13; Tl+ sensitive dye, FLIPR; compounds 15 minutes prior to thallium sulfate; 10 point half log curves from 10 PM; read-out: hKCNK13 IC50

Some compounds with recorded IC50:
Exercise: Dear colleague, I am looking for the recorded IC50 of the following compound: Cc1nonc1-c1nc2c(F)ccc(F)c2n1Cc1cccnn1 [Example 185]
Solution: < 50 nM

Exercise: Could you tell me which IC50 is on file for Nc1nonc1-c1nc2ccccc2n1Cc1ccc(Br)nc1 [Example 88] ?
Solution: < 50 nM

Exercise: Look up IC50 for this compound: Nc1nonc1-c1nc2cc(F)ccc2n1Cc1cncnc1 (single isomer, unassigned) [Example 5]
Solution: < 100 nM

Exercise: State the recorded IC50 for this entry: Cc1nonc1-c1nc2c(F)ccc(F)c2n1Cc1cncnc1 [Example 84]
Solution: < 100 nM

Exercise: What value of measured IC50 is listed for Cc1nonc1-c1nc2c(F)ccc(F)c2n1Cc1cccnc1 [Example 65] ?
Solution: < 50 nM

Exercise: For the compound shown here, COc1cc(Cn2c(-c3nonc3C)nc3ccccc32)ccn1 [Example 66] , give the reported IC50.
Solution: < 200 nM

Next:
Exercise: I would be grateful if you could share the reported IC50 for Cc1nonc1-c1nc2ccccc2n1Cc1ccc(O)nc1 [Example 54] .
Solution: < 500 nM

Exercise: Recorded IC50 of Cc1cc(Cn2c(-c3nonc3C)nc3ccccc32)ccn1 [Example 74] , please.
Solution: < 500 nM

Exercise: # lookup: IC50 of Nc1nonc1-c1nc2c(F)cccc2n1Cc1ccc(C(F)F)nn1 (single isomer, unassigned) [Example 173]
Solution: < 500 nM

Exercise: Given the entry Cc1cc(C)nc(Cn2c(-c3nonc3C)nc3ccccc32)c1 [Example 75] , report its measured IC50.
Solution: < 500 nM

Exercise: May I ask what IC50 has been recorded for Cc1ccsc1-c1nc2ccccc2n1Cc1cccnc1 [Example 100] ?
Solution: < 200 nM
